- assay-summary: Toxicity liver stage against HepG2, at 10uM
- Assay type: cell-based
- Set-up: test concentration 10 uM, cell line HepG2-A16-CD81EGFP
- run-conditions: human, HepG2-A16-CD81EGFP cells; read-out: INHIBITION
Listing of recorded cytotoxicity at 10 µM by entry.
Supply the numeric figure in %, leaving out any unit text.

compound	result-number
CCc1nc(C(=O)N2CCN(CC)CC2)nn1-c1ccccc1Cl	2.79
COCCN(C)Cc1nc(-c2cccc(F)c2F)oc1C	2.56
O=C1CC(c2ccccc2)C2(CCN(C(=O)c3ccncc3F)CC2)N1 (stereo not drawn)	-76.9
CN(CCCC1CCCC1)C(=O)c1cc(CN2CCC(O)CC2)on1	5.21
CN1CC(Nc2nc3c(cnn3C(C)(C)C)c(=O)[nH]2)CCC1=O (stereo not drawn)	-4.26

Measured cytotoxicity at 10 µM of Cn1ccc(C(=O)N2CCC(Cc3cnc4[nH]ccc4c3)CC2)n1 : 8.77

Measured cytotoxicity at 10 µM of Cc1cnn(CC2CCCN2C(=O)c2c(C)noc2C)c1 (stereo not drawn) : -6.02

Measured cytotoxicity at 10 µM of COCC(=O)N1CCC(c2nc3ccc(-c4ccncc4)cn3n2)CC1 : 10.2

Measured cytotoxicity at 10 µM of NC(=O)NC(=O)CCn1ccc(-c2ccccc2)n1 : 5.2

Measured cytotoxicity at 10 µM of CS(=O)(=O)Cc1nc(CN2CCOc3ccccc3C2)cs1 : 5.81

Measured cytotoxicity at 10 µM of CC(C)(C)c1n[nH]c(C2CN(CCc3cccs3)CCO2)n1 (stereo not drawn) : -7.36

Measured cytotoxicity at 10 µM of O=C(Nc1nc[nH]n1)c1cc(-c2ccc(F)cc2)n[nH]1 : -5.4

Measured cytotoxicity at 10 µM of COCC(=O)N1CCCC(c2cc(C(F)F)n3ncnc3n2)C1 (stereo not drawn) : -8.43

Measured cytotoxicity at 10 µM of Cn1ncc(CN2CCc3onc(-c4cccc(F)c4)c3C2)c1C1CC1 : 1.31

Measured cytotoxicity at 10 µM of Cn1cc(Br)cc(NC(=O)CC2CCC2)c1=O : -8.15

Measured cytotoxicity at 10 µM of O=C(CN1CCC[C@H]1C(=O)O)NCCOc1cccc(Cl)c1 : -22.6

Values compiled from ChEMBL document CHEMBL4513216.
